Below, each entry is listed with its recorded IC50.
# Experimental System: HDM2 (Homo sapiens)
# Construct: Thioredoxin (N); made in house; host or cells: E. coli strain BL21(DE3)Rosetta
# Assay Comment: HDM2 FRET assay (inhibition of binding of FITC labeled p53-pocket peptide to HDM2)
# Test Conditions: Table 20; read-out: FRET IC50
Please state the figure in µM; there is no need to write the unit.

Some entries whose results are on file:
C[C@@H](Nc1nc(-c2noc(=O)[nH]2)nc2nc(CC(C)(C)C)n(C[C@H]3CC[C@H](C)CC3)c12)C1CCC1	0.0209
C[C@H]1CC[C@H](Cn2c(C3(c4ccccc4)CCC3)nc3nc(-c4n[nH]c(=O)o4)nc(-c4cc(Cl)c[n+]([O-])c4)c32)CC1	0.0227
C[C@@H](Nc1nc(-c2n[nH]c(=O)n2C)nc2nc(C3(c4ccccc4)CCC3)n(C[C@H]3CC[C@H](C)CC3)c12)C1CCC1	0.0844
C[C@@H](Nc1nc(-c2noc(=O)[nH]2)nc2nc(C3(c4ccccc4)CCC3)n(C[C@H]3CC[C@H](C)CC3)c12)C1CCC1	0.00596
C[C@@H](Nc1nc(C(=O)O)nc2nc(C3(c4ccccc4)CC3)n(C[C@H]3CC[C@H](C)CC3)c12)C1CCC1	0.00259
C[C@@H](Nc1nc(-c2noc(=O)[nH]2)nc2nc(C3(c4ccccc4)CC3)n(C[C@H]3CC[C@H](C)CC3)c12)C1CCC1	0.00498
C[C@@H](Nc1nc(-c2n[nH]c(=O)o2)nc2nc(C3(c4ccccc4)CCC3)n(C[C@H]3CC[C@H](C)CC3)c12)C1CCC1	0.0289

For the next question, use this compound.
Query: Fill in the blank: the reported IC50 of C[C@H]1CC[C@H](Cn2c(C3(c4ccccc4)CCC3)nc3nc(-c4noc(=O)[nH]4)nc(-c4cncc(Cl)c4)c32)CC1 is ____.
Result: 0.00339

* * *

# Experimental System: HDM2 (Homo sapiens)
# Construct: Thioredoxin (N); made in house; host or cells: E. coli strain BL21(DE3)Rosetta
# Assay Comment: HDM2 FRET assay (inhibition of binding of FITC labeled p53-pocket peptide to HDM2)
# Test Conditions: 0.5 nM HDM2 (residues 17 to 125), 3nM peptide, two hour incubation at room temperature; read-out: FRET IC50
Measured Metric: pIC50
Entry type: numeric. Quantity: pIC50, the -log10 of concentration in molar units.

Here are 2 molecules together with their reported answers.
CCS(=O)(=O)c1nc(N[C@H](C)C2CCC2)c2c(n1)nc(N1CCOC[C@H]1c1ccccc1)n2C[C@H]1CC[C@H](C)CC1	7.70
C[C@H]1CC[C@H](Cn2c(N3CCOC[C@H]3c3ccccc3)nc3nc(-c4noc(=O)[nH]4)nc(-c4cc(Cl)cc(N5CCCC5)c4)c32)CC1	7.83

Now let's try a different one.
Query: Any idea what pIC50 was measured for C[C@H](O)[C@H](Nc1nc2nc(-c3noc(=O)[nH]3)nc(-c3cccc(Cl)c3)c2n1C[C@H]1CC[C@H](C)CC1)c1ccccc1 ?
Result: 8.83

* * *

# Experimental System: HDM2 (Homo sapiens, UniProt Q00987)
# Construct: Thioredoxin (N); made in house; host or cells: E. coli strain BL21(DE3)Rosetta
# Sequence (Q00987 17-125): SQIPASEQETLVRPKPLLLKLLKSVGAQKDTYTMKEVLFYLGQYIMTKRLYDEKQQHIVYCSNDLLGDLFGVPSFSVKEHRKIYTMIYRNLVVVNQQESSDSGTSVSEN
# Assay Comment: FRET assay (HDM2 inhibition; method not described in this part)
# Type: binding
# Test Conditions: Table 4
Each record here notes measured pIC50.
Field pIC50 (float): negative decimal logarithm of the concentration in molar.

Cc1ccc(OCCC(=O)O)c(-c2nc3nc(C(=O)O)nc(N[C@H](C)C4CC4)c3n2Cc2ccc(Cl)cc2)c1	6.51
Cc1ccc(OCCCO)c(-c2nc3nc(C(=O)O)nc(N[C@H](C)C4CC4)c3n2Cc2ccc(Cl)cc2)c1	6.95
Cc1ccc(OCCC(=O)NCCO)c(-c2nc3nc(C(=O)O)nc(N[C@H](C)C4CC4)c3n2Cc2ccc(Cl)cc2)c1	6.46
Cc1ccc(OCCCN2CCOCC2)c(-c2nc3nc(C(=O)O)nc(N[C@H](C)C4CC4)c3n2Cc2ccc(Cl)cc2)c1	6.67

Query: Form field - read-out: pIC50; system: HDM2 (Homo sapiens, UniProt Q00987); submitted item: COCCN(CCCOc1ccc(C)cc1-c1nc2nc(C(=O)O)nc(N[C@H](C)C3CC3)c2n1Cc1ccc(Cl)cc1)CCOC
Result: 6.18

Query: Enter reported pIC50 observed with HDM2 (Homo sapiens, UniProt Q00987) for CCOc1ccc(C)cc1-c1nc2nc(C(=O)O)nc(N[C@H](C)C3CC3)c2n1Cc1ccc(Cl)cc1
Result: 6.91

* * *

# Experimental System: HDM2 (Homo sapiens, UniProt Q00987)
# Construct: Thioredoxin (N); made in house; host or cells: E. coli strain BL21(DE3)Rosetta
# Assay Comment: HDM2 FRET assay (inhibition of binding of FITC labeled p53-pocket peptide to HDM2)
# Test Conditions: 0.5 nM HDM2 (residues 17 to 125), 3nM peptide, two hour incubation at room temperature; read-out: FRET IC50
Measured Metric: pIC50
// pIC50: -log10(molar conc.)

In the examples that follow, each entry is paired with its recorded pIC50.
C[C@H]1CC[C@H](Cn2c(N3CCO[C@H]4CCC[C@@H]43)nc3nc(-c4n[nH]c(=O)o4)nc(-c4cccc(Cl)c4)c32)CC1	6.73
CC(C)c1ccnc(-c2nc3nc(C(=O)O)nc(OC(C)C4CCC4)c3n2Cc2ccc(C(F)(F)F)c(F)c2)c1 (racemic)	7.82
CC[C@H](Nc1nc2nc(-c3noc(=O)[nH]3)nc(-c3cccc(Cl)c3)c2n1C[C@H]1CC[C@H](C)CC1)c1cccc(F)c1	8.50

Now, please, on to the next compound.
Query: Recorded pIC50 for C[C@H]1CC[C@H](Cn2c(N3CCOC[C@H]3c3ccccc3)nc3nc(-c4noc(=O)[nH]4)nc(-c4cc(F)cc(Cl)c4)c32)CC1 with HDM2 (Homo sapiens, UniProt Q00987), please?
Result: 8.92

* * *

# Experimental System: HDM2 (Homo sapiens)
# Construct: Thioredoxin (N); made in house; host or cells: E. coli strain BL21(DE3)Rosetta
# Assay Comment: FRET assay (HDM2 inhibition; method not described in this part)
# Type: binding
# Test Conditions: Table 1
Measured Metric: pIC50
Please report pIC50 as the negative decimal logarithm of the molar concentration, giving only the number.

C[C@@H](Nc1nc(C(=O)O)nc2nc(-c3cc4ccccc4cn3)n(Cc3ccc(C(F)(F)F)cc3)c12)C1CCC1	7.34

Query: # get_value(readout='pIC50', item= C[C@@H](Nc1nc(C(=O)O)nc2nc(-c3cccc(C(N)=O)c3)n(Cc3ccc(C(F)(F)F)cc3)c12)C1CCC1 )
Result: 7.31

Query: Could you share which pIC50 value was measured for CC(C)Oc1cccc(-c2nc3nc(C(=O)O)nc(N[C@H](C)C4CC4)c3n2Cc2ccc(C(F)(F)F)cc2)c1 ?
Result: 6.50

Query: Requested read-out: pIC50. Entry: C[C@@H](Nc1nc(C(=O)O)nc2nc(-c3cc(C4CC4)ccn3)n(Cc3ccc(C(F)(F)F)cc3)c12)C1CCC1
Result: 8.08

Query: Would you kindly share the measured pIC50 for CCC(C)c1ccnc(-c2nc3nc(C(=O)O)nc(N[C@H](C)C4CCC4)c3n2Cc2ccc(C(F)(F)F)cc2)c1 (single isomer, unassigned) [Example 1.14] ?
Result: 8.44

Query: Name the recorded pIC50 for Cc1ccc(C)c(-c2nc3nc(C(=O)O)nc(N[C@H](C)C4CCC4)c3n2Cc2ccc(C(F)(F)F)cc2)n1 .
Result: 7.57

Query: Need pIC50, item Cc1cc(C)cc(-c2nc3nc(C(=O)O)nc(N[C@H](C)C4CCC4)c3n2Cc2ccc(C(F)(F)F)cc2)c1
Result: 6.43

Query: Can you share its pIC50? I mean this molecule: CC(C)Oc1cccc(-c2nc3nc(C(=O)O)nc(N[C@H](C)C4CCC4)c3n2Cc2ccc(C(F)(F)F)cc2)c1
Result: 7.41

Query: Look up pIC50: C[C@@H](Nc1nc(C(=O)O)nc2nc(-c3ccc(-c4ccccc4)c(F)c3)n(Cc3ccc(C(F)(F)F)cc3)c12)C1CCC1
Result: 6.46

Query: Request the reported pIC50 associated with C[C@@H](Nc1nc(C(=O)O)nc2nc(-c3ccc(C(=O)C4CC4)cc3)n(Cc3ccc(C(F)(F)F)cc3)c12)C1CCC1
Result: 7.18

Query: Would you mind telling me what pIC50 value was observed for Cc1ccnc(-c2nc3nc(C(=O)O)nc(N[C@H](C)C4CCC4)c3n2Cc2ccc(C(F)(F)F)cc2)c1F ?
Result: 7.31

Query: Return reported pIC50; argument: C[C@@H](Nc1nc(C(=O)O)nc2nc(-c3cc(N(C)C)ccc3O)n(Cc3ccc(C(F)(F)F)cc3)c12)C1CCC1
Result: 7.11

Query: // query pIC50 value for entry CCc1ccc(Cl)c(-c2nc3nc(C(=O)O)nc(N[C@H](C)C4CCC4)c3n2Cc2ccc(C(F)(F)F)cc2)c1
Result: 7.62

Query: Quick check: pIC50 of CC(O)c1ccc(-c2nc3nc(C(=O)O)nc(N[C@H](C)C4CCC4)c3n2Cc2ccc(C(F)(F)F)cc2)cc1 (some centres unmarked) ?
Result: 7.47
